Test system: control Gram-negative E. coli 25922 strain
Assay: Antibacterial activity, microbroth dilution MIC, E. coli 25922
Assay type: cell-based, Escherichia coli
Details: Escherichia coli; E. coli 25922, microbroth dilution; read-out: MIC, 25922
Where a name gives a salt, the structure may show the parent alone.

Molecule | MIC
CCc1cc(C(=O)O)c(=O)[nH]c1-c1ccc(-n2cccc2)cc1 [Cpd 101] | 12.5 to 150 µg/mL
CCc1cc(C(=O)O)c(=O)[nH]c1-c1ccc(N2CCC(C)(O)C2)cc1 (stereo not drawn) [Cpd 233] | 3.5 to 12.5 µg/mL
CCc1cc(C(=O)O)c(=O)[nH]c1-c1ccc(N2CCN(C(=O)OC(C)(C)C)CC2)c(F)c1 [Cpd 91] | 12.5 to 150 µg/mL
CCc1c(-c2ccc(N3C[C@H]4CCCC[C@@]4(CN(C)C)C3)cc2)[nH]c(=O)c(C(=O)O)c1O.Cl [Cpd 266] | 12.5 to 150 µg/mL
CCc1cc(C(=O)O)c(=O)[nH]c1-c1ccc(N2C[C@@H]3[C@H](C2)[C@H]3N(Cc2ccccc2)Cc2ccccc2)cc1 [Cpd 176, hydrochloride] | 12.5 to 150 µg/mL
CCc1c(-c2ccc(N3CCCCC3)cc2C)[nH]c(=O)c(C(=O)O)c1O [Cpd 51] | 12.5 to 150 µg/mL
CCc1c(-c2ccc(N3CC4CCCCC4(C#N)C3)cc2)[nH]c(=O)c(C(=O)O)c1O.O=C(O)C(F)(F)F (stereo not drawn) [Cpd 276] | 12.5 to 150 µg/mL
CCc1c(-c2ccc(N3CC(N)C4(CC4)C3)cc2)[nH]c(=O)c(C(=O)O)c1O.O=C(O)C(F)(F)F (stereo not drawn) [Cpd 252] | 1 to 3.5 µg/mL
CCc1c(-c2ccc(N3CC4=CCCC[C@@H]4C3)cc2)[nH]c(=O)c(C(=O)O)c1O.Cl [Cpd 297] | 12.5 to 150 µg/mL
CCc1cc(C(=O)O)c(=O)[nH]c1-c1ccc(N)cc1 [Cpd 3] | 3.5 to 12.5 µg/mL
CCc1cc(C(=O)O)c(=O)[nH]c1-c1ccc(N2CCC(C3(N)CCC3)C2)cc1.O=C(O)C(F)(F)F (stereo not drawn) [Cpd 218] | 3.5 to 12.5 µg/mL
CCc1cc(C(=O)O)c(=O)[nH]c1-c1ccc(N2CCC(CNCc3cccnc3)C2)cc1 (stereo not drawn) [Cpd 241] | < 1 µg/mL
CCc1cc(C(=O)O)c(=O)[nH]c1-c1ccc(N(C)C)cc1OC [Cpd 62] | 12.5 to 150 µg/mL
CCc1c(-c2ccc(OC)cc2OC)[nH]c(=O)c(C(=O)O)c1O [Cpd 36] | 12.5 to 150 µg/mL
CCc1c(-c2ccc(N3C[C@H]4CC[C@H](N)[C@H]4C3)cc2)[nH]c(=O)c(C(=O)O)c1O.O=C(O)C(F)(F)F [Cpd 265] | 3.5 to 12.5 µg/mL
CCc1cc(C(=O)O)c(=O)[nH]c1-c1ccc(N2C[C@H]3CCN[C@H]3C2)cc1.O=C(O)C(F)(F)F [Cpd 190] | 12.5 to 150 µg/mL
CCc1cc(C(=O)O)c(=O)[nH]c1-c1ccc(N2CCC(CNCc3cccc(Cl)c3)C2)cc1 (stereo not drawn) [Cpd 236] | 1 to 3.5 µg/mL
CCc1c(-c2ccc(N3CCC(C(C)(C)N)C3)cc2)[nH]c(=O)c(C(=O)O)c1O.Cl (stereo not drawn) [Cpd 279] | 1 to 3.5 µg/mL
CCc1c(-c2cnc(N(C)C)nc2)[nH]c(=O)c(C(=O)O)c1O [Cpd 20] | 12.5 to 150 µg/mL
CCc1cc(C(=O)O)c(=O)[nH]c1-c1ccc(N2CCCCC2)cc1OC [Cpd 59] | 12.5 to 150 µg/mL
CCc1cc(C(=O)O)c(=O)[nH]c1-c1ccc(N2CC[C@@H](O)C2)cc1F [Cpd 225] | 3.5 to 12.5 µg/mL
CCc1cc(C(=O)O)c(=O)[nH]c1-c1ccc(N2C[C@@H](N)[C@@H](O)C2)cc1.O=C(O)C(F)(F)F [Cpd 136] | 12.5 to 150 µg/mL
Cc1c(-c2ccc(N3C[C@@H]4[C@@H](N)[C@@H]4C3)cn2)[nH]c(=O)c(C(=O)O)c1O [Cpd 317] | 3.5 to 12.5 µg/mL
CCc1c(-c2ccc(N3C[C@H]4CC[C@@H](NC)[C@H]4C3)cc2)[nH]c(=O)c(C(=O)O)c1O.Cl [Cpd 256] | 1 to 3.5 µg/mL
CCc1c(-c2ccc(N3CCNCC3)cn2)[nH]c(=O)c(C(=O)O)c1O [Cpd 113] | 3.5 to 12.5 µg/mL
CCc1cc(C(=O)O)c(=O)[nH]c1-c1ccc(N2CCC(O)CC2)cc1 [Cpd 222] | 12.5 to 150 µg/mL
CCc1c(-c2ccc(N3CC4(CCN(C)CC4)C3)cc2)[nH]c(=O)c(C(=O)O)c1O [Cpd 319] | 3.5 to 12.5 µg/mL
CCc1cc(C(=O)O)c(=O)[nH]c1-c1ccc(N2C[C@H]3C[C@@H](NC)[C@H]3C2)cc1.Cl [Cpd 210] | 12.5 to 150 µg/mL
CCc1c(-c2ccc(CCN(C)C)cc2)[nH]c(=O)c(C(=O)O)c1O [Cpd 343] | 12.5 to 150 µg/mL
CCc1c(-c2ccc(N3CCC(CN(C)Cc4ccccc4)C3)cc2)[nH]c(=O)c(C(=O)O)c1O (stereo not drawn) [Cpd 255] | 12.5 to 150 µg/mL
CN(C)c1ccc(-c2[nH]c(=O)c(C(=O)O)c(O)c2CC=O)cc1 [Cpd 327] | 12.5 to 150 µg/mL
CCc1c(-c2ccc(-n3ccnc3)cc2)[nH]c(=O)c(C(=O)O)c1O [Cpd 107] | 12.5 to 150 µg/mL
CCc1c(-c2ccc(NCCCI)cc2)[nH]c(=O)c(C(=O)O)c1O [Cpd 82] | 12.5 to 150 µg/mL
